Values from BigSolDB 2.1

details: in isopropyl acetate, 278.15 K
MEASURED_PARAMETER: solubility (mole fraction)
One number for each entry.

Form: molecule = "O=C1OC(=O)[C@H]2[C@@H]1[C@H]1C=C[C@@H]2C1" ; solubility (mole fraction) = 0.0541

====

conditions: in n-propyl acetate, 323.15 K
MEASURED_PARAMETER: solubility (mole fraction)
Numbers only.

solubility (mole fraction) in this record for "O=C1OC(=O)[C@H]2[C@@H]1[C@H]1C=C[C@@H]2C1" : 0.215

====

settings: in isopentyl acetate, 298.15 K
MEASURED_PARAMETER: solubility (mole fraction)
Give bare numbers.

The reported value for "O=C1OC(=O)[C@H]2[C@@H]1[C@H]1C=C[C@@H]2C1" in terms of solubility (mole fraction) is 0.0818

====

settings: in acetone, 293.15 K
MEASURED_PARAMETER: solubility (mole fraction)
Give bare numbers.

The compound listed as "O=C1OC(=O)[C@H]2[C@@H]1[C@H]1C=C[C@@H]2C1" has a reported solubility (mole fraction) of 0.179

====

conditions: in ethyl acetate, 318.15 K
MEASURED_PARAMETER: solubility (mole fraction)
One number for each entry.

"O=C1OC(=O)[C@H]2[C@@H]1[C@H]1C=C[C@@H]2C1" yielded solubility (mole fraction) of 0.226

====

settings: in DMF, 288.15 K
MEASURED_PARAMETER: solubility (mole fraction)
Answers are plain numbers.

Measured solubility (mole fraction), "O=C1OC(=O)[C@H]2[C@@H]1[C@H]1C=C[C@@H]2C1" : 0.246

====

conditions: in isopentyl acetate, 308.15 K
MEASURED_PARAMETER: solubility (mole fraction)
Numbers only.

For "O=C1OC(=O)[C@H]2[C@@H]1[C@H]1C=C[C@@H]2C1" the compound record lists solubility (mole fraction) as 0.107

====

conditions: in ethyl acetate, 288.15 K
MEASURED_PARAMETER: solubility (mole fraction)
Give bare numbers.

The compound listed as "O=C1OC(=O)[C@H]2[C@@H]1[C@H]1C=C[C@@H]2C1" shows solubility (mole fraction) equal to 0.101

====

details: in methyl acetate, 303.15 K
MEASURED_PARAMETER: solubility (mole fraction)

Just so you know, measured solubility (mole fraction) for "O=C1OC(=O)[C@H]2[C@@H]1[C@H]1C=C[C@@H]2C1" came out at 0.189

====

details: in NMP, 298.15 K
MEASURED_PARAMETER: solubility (mole fraction)
Give bare numbers.

Noted for "O=C1OC(=O)[C@H]2[C@@H]1[C@H]1C=C[C@@H]2C1" : its solubility (mole fraction) reads 0.325

====

details: in n-butyl acetate, 278.15 K
MEASURED_PARAMETER: solubility (mole fraction)
Give bare numbers.

Documented solubility (mole fraction) of "O=C1OC(=O)[C@H]2[C@@H]1[C@H]1C=C[C@@H]2C1" : 0.0526

====

conditions: in acetone, 298.15 K
MEASURED_PARAMETER: solubility (mole fraction)
One number for each entry.

Entry "O=C1OC(=O)[C@H]2[C@@H]1[C@H]1C=C[C@@H]2C1" , solubility (mole fraction) reported as 0.201

====

details: in isopentyl acetate, 323.15 K
MEASURED_PARAMETER: solubility (mole fraction)
Give bare numbers.

// sample "O=C1OC(=O)[C@H]2[C@@H]1[C@H]1C=C[C@@H]2C1" , its solubility (mole fraction) was 0.165

====

conditions: in n-butyl acetate, 293.15 K
MEASURED_PARAMETER: solubility (mole fraction)
Numbers only.

Summary for this compound, "O=C1OC(=O)[C@H]2[C@@H]1[C@H]1C=C[C@@H]2C1" : solubility (mole fraction) is 0.0835

====

conditions: in octyl acetate, 278.15 K
MEASURED_PARAMETER: solubility (mole fraction)

# solubility (mole fraction) of "O=C1OC(=O)[C@H]2[C@@H]1[C@H]1C=C[C@@H]2C1" = 0.0303

====

settings: in ethanol, 293.15 K
MEASURED_PARAMETER: solubility (mole fraction)
Answers are plain numbers.

Short answer for "O=C1OC(=O)[C@H]2[C@@H]1[C@H]1C=C[C@@H]2C1" : solubility (mole fraction) was 0.00927

====

conditions: in n-butyl acetate, 303.15 K
MEASURED_PARAMETER: solubility (mole fraction)
Numbers only.

Record "O=C1OC(=O)[C@H]2[C@@H]1[C@H]1C=C[C@@H]2C1" , field solubility (mole fraction): 0.111

====

conditions: in acetone, 283.15 K
MEASURED_PARAMETER: solubility (mole fraction)
Numbers only.

Field solubility (mole fraction) (entry "O=C1OC(=O)[C@H]2[C@@H]1[C@H]1C=C[C@@H]2C1" ) reads 0.144

====

conditions: in ethanol, 313.15 K
MEASURED_PARAMETER: solubility (mole fraction)
Give bare numbers.

# solubility (mole fraction) of "O=C1OC(=O)[C@H]2[C@@H]1[C@H]1C=C[C@@H]2C1" = 0.0255
